Where a SMILES comes first, the peptide text is derived from it.
So basically every entry gets a class from its logP, ranges being bucket A (below 1), bucket B (1 to below 3), bucket C (3 or more)

Query: Band of "CC1(C)CCC(C(F)(F)F)=[N+]1[O-]" ?
Reply: bucket A

Query: Which category fits this record: CC(=O)OC1CCCC2(C)CCC(C(C)(C)O)CC12 (stereo not given)
Reply: bucket C

Query: // bin(item) where item = COc1cccc(C(O)C(C(=O)O)c2ccc(-c3ccccc3)cc2)c1 (stereo not given)
Reply: bucket C

Query: Band for the recorded logP of C=CCN(N=O)C(=O)N(CCCCC(NC(C)=O)C(=O)NCc1ccccc1)Cc1ccccc1 (stereo not given) ?
Reply: bucket B

Query: Sort COCCOCCOCCOc1ccc(C2=NC(C)(C(=O)O)CS2)c(O)c1 (stereo not given) into one of the categories.
Reply: bucket B

Query: Form field 'band' for "Clc1ccc(-c2cnn(-c3ccccn3)c2)cc1"
Reply: bucket C

Query: Class for "O=C1C=C(N2CCCC2)CN1c1ccc(Cl)cc1" ?
Reply: bucket B

Query: Band for the recorded logP of COc1cc2c(c(OC)c1OC)-c1ccc(O)c(=O)cc1C(N)CC2 (stereo not given) ?
Reply: bucket A

Query: Exercise: read the entry CC(C)(C)c1ccc(C(CCN2CCCCC2)c2ccccc2)cc1 (stereo not given) and state which class it falls under.
Reply: bucket C

Query: Band assignment needed for CC(NC(=O)C(Cc1ccccc1)NC(=O)C(N)Cc1c[nH]c2ccccc12)C(=O)O (stereo not drawn) (H-Trp-Phe-Ala-OH; configuration not given here) please.
Reply: bucket A
